Numbers sourced from PubChem BioAssay AID1159580.

# MEASUREMENT_PROTOCOL: chemical genetic growth profiling, strain panel (AID 1159580);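 also: tested at 20 µM; growth read once vehicle control cultures reached saturation at 30 °C; 1 = growth at the plate median or of vehicle wells; lower values mean less growth of the strain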
# MEASUREMENT_CONDITIONS: S. cerevisiae deletion strains, growth OD, locus YBR023C, strain chs3, active compounds read low
About 2,000 (36%) of roughly 5,500 compounds were called active. Not shown: some 18% with an inconclusive outcome. The list shows a part of the results.
EXPERIMENTAL_READOUT: normalized growth
Could you respond with only the numeric value?

**Q:** Recorded normalized growth of O=c1ccc2cc(O[C@@H]3O[C@H](CO)[C@@H](O)[C@H](O)[C@H]3O)c(O)cc2o1 , please.
**A:** 0.983

**Q:** Return reported normalized growth; argument: NCCS
**A:** 0.987

**Q:** What value of measured normalized growth is listed for CCOC(=O)C1=C(C)NC(C)=C(C(=O)OC)C1c1cccc([N+](=O)[O-])c1 (stereo unspecified) ?
**A:** 0.999

**Q:** # query: normalized growth of entry COc1ccc2ccc(=O)oc2c1CC=C(C)C
**A:** 0.843

**Q:** Endpoint output: normalized growth of COc1cc2ccc(=O)oc2c(OC)c1OC . Value?
**A:** 0.995

**Q:** Entry under review: Fc1ccc(C(c2ccc(F)cc2)N2CCN(C/C=C/c3ccccc3)CC2)cc1 . Reported normalized growth?
**A:** 0.22

**Q:** Value lookup for normalized growth; key = Cc1cccc(N(C)C(=S)Oc2ccc3ccccc3c2)c1
**A:** 0.981

**Q:** Form field: reported normalized growth of Nc1ncnc2c1ncn2[C@@H]1O[C@H](CO)[C@@H](O)[C@@H]1O
**A:** 1.01

**Q:** I have this molecule here, O=C(O)c1cccc(O)c1O , and I need its recorded normalized growth.
**A:** 1.02

**Q:** Would you mind telling me what normalized growth value was observed for CC(C)=CCOc1cc2oc(=O)ccc2cc1O ?
**A:** 0.929

**Q:** Name the reported normalized growth value associated with the molecule O=c1cc(-c2ccc(O)cc2)oc2cc(O[C@@H]3O[C@H](CO)[C@@H](O)[C@H](O)[C@H]3O[C@@H]3OC[C@](O)(CO)[C@H]3O)cc(O)c12
**A:** 1.01
